# Target: T1, IL10Rα/IL2Rγ receptor (human, UniProt Q13651 22-578; P31785 23-369)
# T1 sequence (looked up) 1: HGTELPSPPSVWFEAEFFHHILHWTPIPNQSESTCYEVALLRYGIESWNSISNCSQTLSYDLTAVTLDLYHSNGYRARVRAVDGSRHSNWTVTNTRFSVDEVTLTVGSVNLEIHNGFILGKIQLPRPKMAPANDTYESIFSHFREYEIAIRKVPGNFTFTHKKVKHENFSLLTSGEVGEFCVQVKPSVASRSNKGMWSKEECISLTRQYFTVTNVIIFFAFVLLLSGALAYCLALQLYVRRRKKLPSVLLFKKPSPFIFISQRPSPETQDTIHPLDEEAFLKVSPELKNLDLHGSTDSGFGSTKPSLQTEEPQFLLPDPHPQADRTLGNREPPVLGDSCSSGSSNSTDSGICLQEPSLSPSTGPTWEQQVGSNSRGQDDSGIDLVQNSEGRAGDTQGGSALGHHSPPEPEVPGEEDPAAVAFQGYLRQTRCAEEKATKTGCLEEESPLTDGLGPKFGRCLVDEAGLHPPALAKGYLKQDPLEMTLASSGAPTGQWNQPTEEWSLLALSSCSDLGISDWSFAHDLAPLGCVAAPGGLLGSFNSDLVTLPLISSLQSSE
# T1 sequence (looked up) 2: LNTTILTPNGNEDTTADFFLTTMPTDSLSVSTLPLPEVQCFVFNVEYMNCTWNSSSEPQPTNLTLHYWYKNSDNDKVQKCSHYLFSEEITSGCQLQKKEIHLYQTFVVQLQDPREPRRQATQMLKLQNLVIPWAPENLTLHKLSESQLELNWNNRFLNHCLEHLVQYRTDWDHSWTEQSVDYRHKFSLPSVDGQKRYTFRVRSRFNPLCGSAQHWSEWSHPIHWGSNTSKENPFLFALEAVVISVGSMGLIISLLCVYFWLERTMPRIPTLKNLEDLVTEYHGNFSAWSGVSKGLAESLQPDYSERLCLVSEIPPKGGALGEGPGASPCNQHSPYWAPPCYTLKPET
# Assay Info: cell-based or functional assay
Readout Type: pSTAT3 MFI, CD4 T cells, 0.001 nM (unstimulated 1887)

Binder: DR465(DR240-DR231) (bispecific antibody) QVQLQESGGGSVQAGGSLRLSCGASGYTYSSYCMGWFRQVPGKEREGVAVIDSDGSTSYADSVKGRFTISKDNGKNTLYLQMNSLKPEDTAMYYCAADLGHYRPPCGVLYLGMDYWGKGTQVTVSSGGGSQVQLQESGGGSVQAGGSLRLSCTASGFTFDDREMNWYRQAPGNECELVSTISSDGSTYYADSVKGRFTISQDNAKNTVYLQMDSVKPEDTAVYYCAADFMIAIQAPGAGCWGQGTQVTVSSASHHHHHH
Assay Value: 1800 MFI
--
Binder: DR395(DR229-DR239) (bispecific antibody) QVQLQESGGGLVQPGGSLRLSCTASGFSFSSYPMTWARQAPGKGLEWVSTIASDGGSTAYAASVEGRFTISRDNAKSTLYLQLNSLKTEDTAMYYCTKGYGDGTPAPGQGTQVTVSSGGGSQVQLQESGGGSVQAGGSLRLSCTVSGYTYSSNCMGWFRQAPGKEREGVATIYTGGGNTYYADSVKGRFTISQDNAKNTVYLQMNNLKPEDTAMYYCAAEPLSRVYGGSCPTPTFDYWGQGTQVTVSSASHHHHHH
Assay Value: 1870 MFI
--
Binder: DR471(DR241-DR231) (bispecific antibody) QVQLQESGGGSVQAGGSLRLSCAASGYSNCSYDMTWYRQAPGKEREFVSAIHSDGSTRYADSVKGRFFISQDNAKNTVYLQMNSLKPEDTAMYYCKTDPLHCRAHGGSWYSVRANYWGQGTQVTVSSGGGSQVQLQESGGGSVQAGGSLRLSCTASGFTFDDREMNWYRQAPGNECELVSTISSDGSTYYADSVKGRFTISQDNAKNTVYLQMDSVKPEDTAVYYCAADFMIAIQAPGAGCWGQGTQVTVSSASHHHHHH
Assay Value: 1860 MFI
--
Binder: DR441(DR236-DR231) (bispecific antibody) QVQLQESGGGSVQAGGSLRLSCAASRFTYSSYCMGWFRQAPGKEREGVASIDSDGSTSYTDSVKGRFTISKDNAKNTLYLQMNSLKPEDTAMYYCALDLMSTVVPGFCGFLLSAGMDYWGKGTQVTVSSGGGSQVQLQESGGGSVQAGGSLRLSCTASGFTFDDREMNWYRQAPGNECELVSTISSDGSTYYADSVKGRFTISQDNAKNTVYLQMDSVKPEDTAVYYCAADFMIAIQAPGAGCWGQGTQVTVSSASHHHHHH
Assay Value: 1830 MFI
